# target: glucocorticoid receptor (Homo sapiens)
# Sequence (P04150 1-777): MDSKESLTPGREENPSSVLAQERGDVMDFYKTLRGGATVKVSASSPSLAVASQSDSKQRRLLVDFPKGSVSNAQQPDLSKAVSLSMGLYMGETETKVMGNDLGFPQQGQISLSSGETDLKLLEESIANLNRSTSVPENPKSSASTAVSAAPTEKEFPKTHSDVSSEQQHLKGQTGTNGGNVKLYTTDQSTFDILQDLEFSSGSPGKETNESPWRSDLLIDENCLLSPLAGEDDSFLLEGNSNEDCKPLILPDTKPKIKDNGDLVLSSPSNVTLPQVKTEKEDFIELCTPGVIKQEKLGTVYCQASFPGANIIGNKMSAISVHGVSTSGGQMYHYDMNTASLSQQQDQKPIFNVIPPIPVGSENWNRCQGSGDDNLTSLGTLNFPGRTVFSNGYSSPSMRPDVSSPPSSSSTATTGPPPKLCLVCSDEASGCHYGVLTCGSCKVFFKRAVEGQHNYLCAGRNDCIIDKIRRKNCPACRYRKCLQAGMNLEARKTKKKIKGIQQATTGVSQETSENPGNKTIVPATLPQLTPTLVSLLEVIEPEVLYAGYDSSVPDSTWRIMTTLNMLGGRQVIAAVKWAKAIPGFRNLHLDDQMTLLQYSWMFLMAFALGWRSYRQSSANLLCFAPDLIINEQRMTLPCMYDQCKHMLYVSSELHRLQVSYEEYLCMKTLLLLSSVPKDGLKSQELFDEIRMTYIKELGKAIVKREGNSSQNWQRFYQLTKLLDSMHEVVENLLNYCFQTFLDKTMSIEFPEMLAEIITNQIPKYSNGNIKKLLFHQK
# measurement protocol: NF-κB/ELAM promoter sPAP reporter assay in A549 cells, TNF stimulated (transrepressive activity of a glucocorticoid agonist)
# run parameters: compound 1 hour at 37° C., then TNF 10 ng/ml for 16 hours, read-out: EC50 (transrepression, NF-κB sPAP reporter)
pEC50: −log10 of the molar value.
Reported pEC50 values for a set of molecules

Field: example entries. Status: answers known.
1. C[C@@H]1C[C@H]2[C@@H]3C[C@H](F)C4=CC(=O)C=C[C@]4(C)[C@@]3(F)[C@@H](O)C[C@]2(C)[C@@]1(OC(=O)C1C(C)(C)C1(Cl)Cl)C(=O)OCC#N (stereo partly drawn)
≥ 10.00
2. CSc1ccc(C(=O)O[C@]2(C(=O)OCC#N)[C@H](C)C[C@H]3[C@@H]4C[C@H](F)C5=CC(=O)C=C[C@]5(C)[C@@]4(F)[C@@H](O)C[C@@]32C)s1
≥ 10.00

The molecule identified as C[C@@H]1C[C@H]2[C@@H]3C[C@H](F)C4=CC(=O)C=C[C@]4(C)[C@@]3(F)[C@@H](O)C[C@]2(C)[C@@]1(OC(=O)c1ccc(C#N)cc1)C(=O)OCC#N registered its pEC50 at ≥ 10.00
